Hey, just so you know, these numbers are from ChEMBL document CHEMBL1131658.

- procedure_summary: Maximum concentration of compound in dog was evaluated.
- Assay type: ADME, organism-based, Canis lupus familiaris
- conditions: in vivo
quantity_kind: Cmax (nM)
Output spec: scalar in nM, unitless text.

// lookup Cmax for O=C1N(Cc2ccc3[nH]ncc3c2)[C@H](Cc2ccccc2)[C@H](O)[C@@H](O)[C@@H](Cc2ccccc2)N1Cc1ccc2[nH]ncc2c1 1000

---

- procedure_summary: Half life period was evaluated.
- Type: ADME
quantity_kind: half-life (h)
Return type: number; implicit unit h.

I am curious: what half-life value has been reported for O=C1N(Cc2ccc3[nH]ncc3c2)[C@H](Cc2ccccc2)[C@H](O)[C@@H](O)[C@@H](Cc2ccccc2)N1Cc1ccc2[nH]ncc2c1 ? 2

---

- assayed_target: Human immunodeficiency virus type 1 protease (Human immunodeficiency virus 1, UniProt Q72874)
quantity_kind: Ki

- smiles_text: "CCNc1[nH]nc2ccc(CN3C(=O)N(Cc4ccc5n[nH]c(NCC)c5c4)[C@H](Cc4ccccc4)[C@H](O)[C@@H](O)[C@H]3Cc3ccccc3)cc12"
  Ki: "41 pM"
- smiles_text: "O=C1N(Cc2ccc3[nH]nc(N4CCCC4)c3c2)[C@H](Cc2ccccc2)[C@H](O)[C@@H](O)[C@@H](Cc2ccccc2)N1Cc1ccc2[nH]nc(N3CCCC3)c2c1"
  Ki: "1300 pM"
- smiles_text: "CC(C)Nc1[nH]nc2ccc(CN3C(=O)N(Cc4ccc5n[nH]c(NC(C)C)c5c4)[C@H](Cc4ccccc4)[C@H](O)[C@@H](O)[C@H]3Cc3ccccc3)cc12"
  Ki: "90 pM"
- smiles_text: "O=C1N(Cc2ccc3[nH]nc(NCC4CC4)c3c2)[C@H](Cc2ccccc2)[C@H](O)[C@@H](O)[C@@H](Cc2ccccc2)N1Cc1ccc2[nH]nc(NCC3CC3)c2c1"
  Ki: "340 pM"
- smiles_text: "Nc1n[nH]c2ccc(CN3C(=O)N(Cc4ccc5[nH]nc(N)c5c4)[C@H](Cc4ccccc4)[C@H](O)[C@@H](O)[C@H]3Cc3ccccc3)cc12"
  Ki: "< 10 pM"

I'd like to know its Ki. The compound in question is O=C1N(Cc2ccc3[nH]c(O)nc3c2)[C@H](Cc2ccccc2)[C@H](O)[C@@H](O)[C@@H](Cc2ccccc2)N1Cc1ccc2[nH]c(O)nc2c1 < 10 pM

What does the record list as Ki for CCCNc1[nH]nc2ccc(CN3C(=O)N(Cc4ccc5n[nH]c(NCCC)c5c4)[C@H](Cc4ccccc4)[C@H](O)[C@@H](O)[C@H]3Cc3ccccc3)cc12 ? 230 pM

Item under review: CNc1[nH]nc2ccc(CN3C(=O)N(Cc4ccc5n[nH]c(NC)c5c4)[C@H](Cc4ccccc4)[C@H](O)[C@@H](O)[C@H]3Cc3ccccc3)cc12 . Reported Ki? 18 pM

---

- procedure_summary: Maximum concentration of compound in rat was evaluated.
- Format: ADME, organism-based
- conditions: in vivo
quantity_kind: Cmax

Fill in: Cmax of O=C1N(Cc2ccc3[nH]ncc3c2)[C@H](Cc2ccccc2)[C@H](O)[C@@H](O)[C@@H](Cc2ccccc2)N1Cc1ccc2[nH]ncc2c1 is ___ 30 nM
